- procedure-text: In vitro absorption assay, membrane permeability
- Type: in vitro ADME
- condition-summary: dog, MDCK; MDCKII, A to B
measure-name: Papp A→B (×10⁻⁶ cm/s)
Report the figure in ×10⁻⁶ cm/s without appending any unit label.

// Papp A→B lookup, molecule = O=C1NC(=O)C(Cc2ccc(OCCN3CCN(C(=O)OCc4cc(Cl)cc(Cl)c4)CC3)cc2)S1 (stereo not shown) [A-1] , result: 3.7

* * *

- study-target: hERG (Homo sapiens, UniProt Q12809)
- Construct: expressed in transfected cells; host or cells: CHO cells
- Sequence (Q12809 whole entry): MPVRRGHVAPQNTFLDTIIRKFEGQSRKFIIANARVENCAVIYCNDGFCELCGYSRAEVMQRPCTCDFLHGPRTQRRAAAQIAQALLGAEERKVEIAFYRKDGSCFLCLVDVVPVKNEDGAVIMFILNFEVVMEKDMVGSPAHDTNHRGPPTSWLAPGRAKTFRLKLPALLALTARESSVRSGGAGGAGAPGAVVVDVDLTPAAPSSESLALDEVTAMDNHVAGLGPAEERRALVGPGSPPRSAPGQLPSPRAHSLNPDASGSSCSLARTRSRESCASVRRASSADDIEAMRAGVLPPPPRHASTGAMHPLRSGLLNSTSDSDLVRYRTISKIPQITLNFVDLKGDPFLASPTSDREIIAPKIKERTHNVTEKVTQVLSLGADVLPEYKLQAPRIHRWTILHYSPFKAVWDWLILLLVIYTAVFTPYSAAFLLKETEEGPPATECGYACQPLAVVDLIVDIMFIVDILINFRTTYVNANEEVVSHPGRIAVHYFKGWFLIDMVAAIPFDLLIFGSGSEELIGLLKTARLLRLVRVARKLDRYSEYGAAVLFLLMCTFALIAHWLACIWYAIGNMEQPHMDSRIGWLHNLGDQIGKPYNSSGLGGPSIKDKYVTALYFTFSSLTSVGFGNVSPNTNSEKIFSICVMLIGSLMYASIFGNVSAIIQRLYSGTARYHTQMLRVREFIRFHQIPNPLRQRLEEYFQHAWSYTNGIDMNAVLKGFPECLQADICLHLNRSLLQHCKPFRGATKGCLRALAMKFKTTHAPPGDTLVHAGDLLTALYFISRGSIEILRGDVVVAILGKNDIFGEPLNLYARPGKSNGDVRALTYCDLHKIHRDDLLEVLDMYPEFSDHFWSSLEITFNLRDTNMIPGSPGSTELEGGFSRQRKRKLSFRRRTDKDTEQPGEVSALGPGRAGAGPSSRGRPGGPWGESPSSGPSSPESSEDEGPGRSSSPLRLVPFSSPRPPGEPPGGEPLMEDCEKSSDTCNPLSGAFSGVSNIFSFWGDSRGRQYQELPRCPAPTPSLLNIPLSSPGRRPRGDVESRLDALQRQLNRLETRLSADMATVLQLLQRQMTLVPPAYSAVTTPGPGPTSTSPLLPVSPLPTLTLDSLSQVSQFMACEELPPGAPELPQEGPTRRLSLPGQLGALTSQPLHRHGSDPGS
- procedure-text: Cardiac toxicity assay, hERG inhibition in CHO cells
- Assay type: cell-based
- condition-summary: human; at 25 μM
measure-name: inhibition at 25 µM

Recorded result, O=C1NC(=O)C(Cc2ccc(OCCC3CCN(C(=O)OCc4cc(Cl)cc(Cl)c4)CC3)cc2)S1 (stereo not shown) , inhibition at 25 µM: 11%
